These data points were gathered from PubChem BioAssay AID488899.

experiment: MITF transcriptional activity suppression – cell-based, SK-MEL-5, single point, luciferase, primary screen (AID 488899); conditions: SK-MEL-5 TRPM1 promoter luciferase, 24 h; at 12.5 µM; stronger effect = higher value
Among all 330,000 compounds or so, about 2,800 (0.85%) were called active. This is one part of a sample in which actives are shown more often than they occur.
parameter_measured: inhibition (%)
Answers are plain numbers, in %.

{"compound": "COc1ccc(C(=O)Nc2ccccc2C(=O)N2CCN(c3ccccc3)CC2)cc1", "inhibition (%)": -1.5}
{"compound": "O=C1NCC(c2ccccc2)(c2ccccc2)C(=O)N1", "inhibition (%)": -7.87}
{"compound": "COCCN1C(=O)C(=O)/C(=C(/O)c2ccc(S(=O)(=O)N3CCOCC3)cc2)C1c1ccc(O)c(OC)c1 (stereo not given)", "inhibition (%)": -1.49}
{"compound": "COc1ccc(C(=O)Nc2ccccc2C(=O)N/N=C/c2ccc(O)c(OC)c2)cc1", "inhibition (%)": 73.3}
{"compound": "Cc1ccc(S(=O)(=O)N(Cc2cccc([N+](=O)[O-])c2)C(=O)N2CCN(C)CC2)cc1", "inhibition (%)": 4.92}
{"compound": "CC1CN(C(=O)CCC(=O)NCCCN2CCC(Cc3ccccc3)CC2)c2cc(Cl)ccc2O1 (stereo not given)", "inhibition (%)": 81.8}
{"compound": "CN(CC(=O)Nc1ccc(F)c(F)c1F)C(=O)Cn1cnc2c1c(=O)n(C)c(=O)n2C", "inhibition (%)": -2.69}
{"compound": "CCN(CC)C(=O)CN(c1cccc([N+](=O)[O-])c1)S(=O)(=O)c1ccccc1", "inhibition (%)": -4.33}

// for each compound in input: emit inhibition
1. CCOC(=O)C1=C(c2ccccc2)NC(=S)NC1c1ccc(Cl)cc1 (stereo not given)
2. Clc1cccc(-c2nc(NCC3CCCO3)c3ccccc3n2)c1 (stereo not given)
3. O=[N+]([O-])c1ccccc1/C=C/CN1CCC(O)CC1
4. CC1CCCCC1NC(=O)/C(C#N)=C/C=C/c1ccccc1[N+](=O)[O-] (stereo not given)
5. CCCCN1CC(COCc2ccccc2)OCCS1(=O)=O (stereo not given)
6. O=[N+]([O-])c1ccccc1/C=C/CN1CCCC(CO)C1 (stereo not given)
7. CC(=O)NC(Cc1ccc(F)c(F)c1)C(=O)NC1CCN(C(=O)c2ccc(C)cc2)CC1 (stereo not given)

1. -19
2. -7.27
3. -6.15
4. 87
5. 6.74
6. 3.33
7. 7.52
